FYI, the data here is from patent US5703070A.

molecular target: D2 receptors (Rattus norvegicus, UniProt P61169); construct: from tissue; host or cells: rat striatum (own knowledge of the cited method); assay: biochemical; format: binding; conditions: read-out: Receptor profile Ki, D2
Sequence (P61169 whole entry): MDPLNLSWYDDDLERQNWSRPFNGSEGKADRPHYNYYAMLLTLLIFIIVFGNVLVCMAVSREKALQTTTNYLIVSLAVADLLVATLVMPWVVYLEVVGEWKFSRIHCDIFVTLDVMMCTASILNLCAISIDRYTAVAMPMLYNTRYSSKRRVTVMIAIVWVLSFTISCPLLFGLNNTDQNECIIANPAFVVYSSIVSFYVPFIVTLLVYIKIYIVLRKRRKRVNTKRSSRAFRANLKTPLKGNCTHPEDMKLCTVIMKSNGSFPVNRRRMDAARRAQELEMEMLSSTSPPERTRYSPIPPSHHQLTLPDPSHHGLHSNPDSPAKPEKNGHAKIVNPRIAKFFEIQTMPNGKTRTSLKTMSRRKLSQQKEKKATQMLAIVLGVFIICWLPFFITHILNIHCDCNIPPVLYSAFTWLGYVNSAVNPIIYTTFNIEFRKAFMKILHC
This listing pairs compounds with measured log10 Ki.
Hello, just confirming the data are log10 of Ki with units of nM.

Solved cases (8 shown):
COc1ccc2[nH]cc(CCCN3CCC(CC(=O)c4ccc(F)cc4)C3)c2c1.Cl (stereo not drawn) [Ex. 4, hydrochloride]
0.80
COc1ccc2c(c1)c(CCN1CCC(CC(=O)c3ccc(F)cc3)C1)cn2C.Cl (stereo not drawn) [Ex. 2, hydrochloride]
2.12
Cl.O=C(CC1CCN(CCCc2c[nH]c3ccc(F)cc23)C1)c1ccc(F)cc1 (stereo not drawn) [Ex. 8, hydrochloride]
0.98
COc1ccc2[nH]cc(CCCN3CCC(C(=O)c4ccc(F)cc4)CC3)c2c1.Cl [Ref. A, hydrochloride, reference compound]
1.04
COc1ccc2[nH]cc(CCCN3CCCC(C(=O)c4ccc(F)cc4)CC3)c2c1.Cl (stereo not drawn) [Ex. 7, hydrochloride]
1.64
COc1ccc2[nH]cc(CCCN3CCC(Cc4noc5cc(F)ccc45)C3)c2c1.Cl (stereo not drawn) [Ex. 9, hydrochloride]
1.99
COc1ccc2c(c1)c(CCCN1CCC(CC(=O)c3ccc(F)cc3)C1)cn2C.Cl (stereo not drawn) [Ex. 6, hydrochloride]
1.19
COc1ccc2[nH]cc(CCCN3CCC(CC(=O)c4ccc(F)cc4)C3)c2c1.Cl (racemic) [Ex. 3, hydrochloride]
0.72

Here's the next entry for you.
Write down log10 Ki measured for item COc1ccc2[nH]cc(CCCN3CCC(CC(=O)c4ccc(F)cc4)C3)c2c1.Cl (stereo not drawn) [Ex. 5, hydrochloride]
0.85

###

Test system 5-HT2C receptors (Sus scrofa, UniProt K7GSR7), log10 of Ki listed for each of the compounds.
All values: base-10 log of Ki in nM.

Examples with their reported log10 of Ki follow.
COc1ccc2[nH]cc(CCCN3CCC(CC(=O)c4ccc(F)cc4)C3)c2c1.Cl (stereo not drawn) [Ex. 4, hydrochloride]
0.60
Cl.O=C(CC1CCN(CCCc2c[nH]c3ccc(F)cc23)C1)c1ccc(F)cc1 (stereo not drawn) [Ex. 8, hydrochloride]
1.28
COc1ccc2[nH]cc(CCN3CCC(CC(=O)c4ccc(F)cc4)C3)c2c1.Cl (stereo not drawn) [Ex. 1, hydrochloride]
1.70
COc1ccc2[nH]cc(CCCN3CCC(CC(=O)c4ccc(F)cc4)C3)c2c1.Cl (racemic) [Ex. 3, hydrochloride]
0.52
COc1ccc2c(c1)c(CCN1CCC(CC(=O)c3ccc(F)cc3)C1)cn2C.Cl (stereo not drawn) [Ex. 2, hydrochloride]
1.20

Consider the compound COc1ccc2[nH]cc(CCCN3CCC(Cc4noc5cc(F)ccc45)C3)c2c1.Cl (stereo not drawn) [Ex. 9, hydrochloride] . State its measured log10 of Ki.
0.90

###

Molecular target: 5-HT1A receptors (Rattus norvegicus)
Sequence (P19327 whole entry): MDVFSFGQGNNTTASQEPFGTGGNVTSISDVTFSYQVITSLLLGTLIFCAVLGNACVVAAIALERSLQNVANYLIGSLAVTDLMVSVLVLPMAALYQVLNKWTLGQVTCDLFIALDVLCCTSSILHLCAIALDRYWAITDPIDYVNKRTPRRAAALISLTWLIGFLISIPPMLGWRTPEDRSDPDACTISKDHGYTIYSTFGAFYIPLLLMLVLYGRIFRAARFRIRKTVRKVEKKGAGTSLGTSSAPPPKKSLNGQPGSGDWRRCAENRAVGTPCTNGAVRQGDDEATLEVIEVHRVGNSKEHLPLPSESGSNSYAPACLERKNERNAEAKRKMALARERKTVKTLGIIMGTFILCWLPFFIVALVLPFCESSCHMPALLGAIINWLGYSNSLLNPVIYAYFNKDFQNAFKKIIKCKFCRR
Assay: biochemical
Format: binding
Settings: read-out: Receptor profile Ki, 5-HT1A
Method: The interaction of these compounds with various receptors was determined by using conventional binding studies, such as those described by M. J. Millan et at. […] The affinities of the compounds are expressed in Ki.
pKi: −log10 of the molar value.
Label scheme for pKi: lower than 8 is F, 8 and above is T.

COc1ccc2[nH]cc(CCCN3CCC(CC(=O)c4ccc(F)cc4)C3)c2c1.Cl (stereo not drawn) [Ex. 5, hydrochloride]
T
COc1ccc2[nH]cc(CCCN3CCCC(C(=O)c4ccc(F)cc4)CC3)c2c1.Cl (stereo not drawn) [Ex. 7, hydrochloride]
T
COc1ccc2[nH]cc(CCCN3CCC(C(=O)c4ccc(F)cc4)CC3)c2c1.Cl [Ref. A, hydrochloride, reference compound]
T
COc1ccc2[nH]cc(CCCN3CCC(CC(=O)c4ccc(F)cc4)C3)c2c1.Cl (racemic) [Ex. 3, hydrochloride]
T
COc1ccc2c(c1)c(CCN1CCC(CC(=O)c3ccc(F)cc3)C1)cn2C.Cl (stereo not drawn) [Ex. 2, hydrochloride]
F
COc1ccc2[nH]cc(CCCN3CCC(CC(=O)c4ccc(F)cc4)C3)c2c1.Cl (stereo not drawn) [Ex. 4, hydrochloride]
T
COc1ccc2[nH]cc(CCCN3CCC(Cc4noc5cc(F)ccc45)C3)c2c1.Cl (stereo not drawn) [Ex. 9, hydrochloride]
T

Quick check, pKi >= 8? COc1ccc2c(c1)c(CCCN1CCC(CC(=O)c3ccc(F)cc3)C1)cn2C.Cl (stereo not drawn) [Ex. 6, hydrochloride]
F

###

test system: 5-HT2C receptors; assay: biochemical; type: binding; conditions: ratio of Ki values D2 / 5-HT2C
Response field label takes satisfied when D2 /5-HT2C is strictly below 0.5 and not satisfied in all other cases.

# example entries with known answers
COc1ccc2[nH]cc(CCCN3CCCC(C(=O)c4ccc(F)cc4)CC3)c2c1.Cl (centres unmarked)
satisfied
COc1ccc2[nH]cc(CCCN3CCC(Cc4noc5cc(F)ccc45)C3)c2c1.Cl (centres unmarked)
not satisfied
COc1ccc2[nH]cc(CCCN3CCC(C(=O)c4ccc(F)cc4)CC3)c2c1.Cl [Ref. A, reference compound]
satisfied
COc1ccc2c(c1)c(CCCN1CCC(CC(=O)c3ccc(F)cc3)C1)cn2C.Cl (centres unmarked)
not satisfied

# TODO verify D2 /5-HT2C < 0.5 strictly for this compound: COc1ccc2[nH]cc(CCN3CCC(CC(=O)c4ccc(F)cc4)C3)c2c1.Cl (centres unmarked)
not satisfied

Hello, I'm reviewing records and need to know if D2 /5-HT2C of COc1ccc2[nH]cc(CCCN3CCC(CC(=O)c4ccc(F)cc4)C3)c2c1.Cl (racemic) is below 0.5. Could you check?
not satisfied

Is the reported D2 /5-HT2C for COc1ccc2c(c1)c(CCN1CCC(CC(=O)c3ccc(F)cc3)C1)cn2C.Cl (centres unmarked) strictly below 0.5?
not satisfied

###

Ki listing for selected compounds.
target: 5-HT2A receptors (Rattus norvegicus)
Write the answer as a number in nM, unit excluded.

COc1ccc2[nH]cc(CCCN3CCC(CC(=O)c4ccc(F)cc4)C3)c2c1.Cl (racemic) [Ex. 3, hydrochloride]
1
COc1ccc2[nH]cc(CCN3CCC(CC(=O)c4ccc(F)cc4)C3)c2c1.Cl (stereo not shown) [Ex. 1, hydrochloride]
1.6
COc1ccc2c(c1)c(CCCN1CCC(CC(=O)c3ccc(F)cc3)C1)cn2C.Cl (stereo not shown) [Ex. 6, hydrochloride]
4.3

Specify the recorded Ki for COc1ccc2[nH]cc(CCCN3CCC(CC(=O)c4ccc(F)cc4)C3)c2c1.Cl (stereo not shown) [Ex. 4, hydrochloride] , system: 5-HT2A receptors (Rattus norvegicus).
1.2

Jot down Ki (5-HT2A receptors (Rattus norvegicus)) of COc1ccc2c(c1)c(CCN1CCC(CC(=O)c3ccc(F)cc3)C1)cn2C.Cl (stereo not shown) [Ex. 2, hydrochloride] .
1.3

Output reported Ki of the compound COc1ccc2[nH]cc(CCCN3CCC(CC(=O)c4ccc(F)cc4)C3)c2c1.Cl (stereo not shown) [Ex. 5, hydrochloride] on 5-HT2A receptors (Rattus norvegicus).
1.7

###

Target: 5-HT2C receptors (Sus scrofa)
Sequence (K7GSR7 1-457): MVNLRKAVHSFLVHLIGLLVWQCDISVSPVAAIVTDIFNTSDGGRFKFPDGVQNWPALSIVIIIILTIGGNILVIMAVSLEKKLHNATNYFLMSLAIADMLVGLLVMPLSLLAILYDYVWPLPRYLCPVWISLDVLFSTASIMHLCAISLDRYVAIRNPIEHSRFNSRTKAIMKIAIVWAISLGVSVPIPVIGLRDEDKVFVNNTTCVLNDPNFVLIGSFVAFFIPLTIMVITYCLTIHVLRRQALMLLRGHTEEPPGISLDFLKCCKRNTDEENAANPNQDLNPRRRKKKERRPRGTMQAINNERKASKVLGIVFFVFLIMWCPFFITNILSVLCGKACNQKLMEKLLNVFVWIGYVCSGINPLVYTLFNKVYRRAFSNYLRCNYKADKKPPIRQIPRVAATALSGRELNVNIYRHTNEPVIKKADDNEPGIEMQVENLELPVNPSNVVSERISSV
endpoint: Ki (nM)
Provide only the numeric value, understood in nM.

# annotated cases, reported Ki shown
COc1ccc2[nH]cc(CCCN3CCCC(C(=O)c4ccc(F)cc4)CC3)c2c1.Cl (stereo not shown) [Ex. 7, hydrochloride]
117
COc1ccc2[nH]cc(CCCN3CCC(C(=O)c4ccc(F)cc4)CC3)c2c1.Cl [Ref. A, hydrochloride, reference compound]
98
COc1ccc2c(c1)c(CCCN1CCC(CC(=O)c3ccc(F)cc3)C1)cn2C.Cl (stereo not shown) [Ex. 6, hydrochloride]
17

Could you now consider this next molecule?
Identify the reported Ki for the following entry. COc1ccc2[nH]cc(CCCN3CCC(CC(=O)c4ccc(F)cc4)C3)c2c1.Cl (stereo not shown) [Ex. 5, hydrochloride]
3.8

###

Item-by-item account of D2 /5-HT2A
target: 5-HT2A receptors (Rattus norvegicus, UniProt P14842); construct: from tissue; host or cells: rat frontal cortex (own knowledge of the cited method); experiment: Conventional binding studies, receptor profile: 5-HT2A; conditions: ratio of Ki values D2 / 5-HT2A
Sequence (P14842 whole entry): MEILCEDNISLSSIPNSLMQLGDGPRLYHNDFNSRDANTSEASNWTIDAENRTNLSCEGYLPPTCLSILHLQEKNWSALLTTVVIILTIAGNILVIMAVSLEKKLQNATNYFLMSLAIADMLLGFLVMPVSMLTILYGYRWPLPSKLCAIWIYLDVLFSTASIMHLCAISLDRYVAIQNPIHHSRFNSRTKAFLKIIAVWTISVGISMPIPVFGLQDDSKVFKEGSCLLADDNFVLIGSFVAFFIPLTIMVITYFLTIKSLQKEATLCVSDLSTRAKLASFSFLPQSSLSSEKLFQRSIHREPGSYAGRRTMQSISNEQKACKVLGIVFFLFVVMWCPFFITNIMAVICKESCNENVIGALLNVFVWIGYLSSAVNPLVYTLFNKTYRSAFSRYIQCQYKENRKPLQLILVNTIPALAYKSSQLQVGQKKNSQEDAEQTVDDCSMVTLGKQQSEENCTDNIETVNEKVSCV
Form rule: numeric answer, no unit written next to it.

COc1ccc2[nH]cc(CCCN3CCCC(C(=O)c4ccc(F)cc4)CC3)c2c1.Cl (centres unmarked) [Ex. 7]
1.6
Cl.O=C(CC1CCN(CCCc2c[nH]c3ccc(F)cc23)C1)c1ccc(F)cc1 (centres unmarked) [Ex. 8]
1.4
COc1ccc2c(c1)c(CCCN1CCC(CC(=O)c3ccc(F)cc3)C1)cn2C.Cl (centres unmarked) [Ex. 6]
3.6
COc1ccc2[nH]cc(CCCN3CCC(C(=O)c4ccc(F)cc4)CC3)c2c1.Cl [Ref. A, reference compound]
1.3
COc1ccc2[nH]cc(CCCN3CCC(CC(=O)c4ccc(F)cc4)C3)c2c1.Cl (racemic) [Ex. 3]
5.2
COc1ccc2c(c1)c(CCN1CCC(CC(=O)c3ccc(F)cc3)C1)cn2C.Cl (centres unmarked) [Ex. 2]
101
COc1ccc2[nH]cc(CCCN3CCC(Cc4noc5cc(F)ccc45)C3)c2c1.Cl (centres unmarked) [Ex. 9]
31

Please examine the following record next.
Give me measured D2 /5-HT2A, please, for this compound: COc1ccc2[nH]cc(CCN3CCC(CC(=O)c4ccc(F)cc4)C3)c2c1.Cl (centres unmarked) [Ex. 1]
69
